This listing pairs molecules with measured mass density.
# condition-summary: 298.15 K; 101.33 kPa; Liquid
Return type: number; implicit unit kg/m3.

INPUT: Which measured mass density value corresponds to "CCCCO" ?
OUTPUT: 805.4

INPUT: Which measured mass density value corresponds to "CC(C)(C)O" ?
OUTPUT: 779.96

INPUT: Which measured mass density value corresponds to "CCCCCl" ?
OUTPUT: 880.18

INPUT: Which measured mass density value corresponds to CCC(C)O (stereo not given) ?
OUTPUT: 801.82

INPUT: Which measured mass density value corresponds to "CC(C)CO" ?
OUTPUT: 797.37

====

# condition-summary: 318.15 K; 101.33 kPa; Liquid
measurement-kind: mass density (kg/m3)
Return type: number; implicit unit kg/m3.

compound	mass density, kg/m3
CCCCO	790.19
CC(C)(C)O	759.52
CCC(C)O (stereo not given)	785.15
CCCCCl	858.31

Consider the record given below.
INPUT: Which measured mass density value corresponds to "CC(C)CO" ?
OUTPUT: 781.99

====

# condition-summary: 318.15 K; 101.33 kPa; Liquid
This listing pairs molecules with measured viscosity.
Return type: number; implicit unit mPa·s.

Some molecules with recorded viscosity:
molecule	viscosity, mPa·s
CC(C)(C)O [2-methylpropan-2-ol]	1.685
CC(C)CO [2-methyl-1-propanol]	1.87

INPUT: Which measured viscosity value corresponds to CCCCCl [1-chlorobutane] ?
OUTPUT: 0.354

INPUT: Which measured viscosity value corresponds to CCCCO [butan-1-ol] ?
OUTPUT: 1.569

INPUT: Which measured viscosity value corresponds to CCC(C)O (stereo not given) [butan-2-ol] ?
OUTPUT: 1.523

====

# condition-summary: 288.15 K; 101.33 kPa; Liquid
± gives the expanded uncertainty stated by the source.
This listing pairs molecules with measured mass density.

Some molecules with recorded mass density:
molecule	mass density
CCCCO	813.42 ± 0.43 kg/m3
CC(C)CO	805.47 ± 0.48 kg/m3
CCC(C)O (centres undefined)	810.72 ± 0.59 kg/m3

Consider the record given below.
INPUT: Which measured mass density value corresponds to "CCCCCl" ?
OUTPUT: 891.87 ± 0.37 kg/m3

====

# condition-summary: 308.15 K; 101.33 kPa; Liquid
measurement-kind: viscosity (mPa·s)
Return type: number; implicit unit mPa·s.

Some molecules with recorded viscosity:
molecule	viscosity / mPa·s
CCCCO [butan-1-ol]	1.991
CCCCCl [1-chlorobutane]	0.39
CCC(C)O (stereo not given) [butan-2-ol]	2.111
CC(C)(C)O [2-methylpropan-2-ol]	2.611

INPUT: Which measured viscosity value corresponds to CC(C)CO [2-methyl-1-propanol] ?
OUTPUT: 2.508

====

This listing pairs molecules with measured viscosity.
# condition-summary: 298.15 K; 101.33 kPa; Liquid
± gives the expanded uncertainty stated by the source.
Kindly format the answer as number then unit.

Some molecules with recorded viscosity:
molecule	viscosity
CC(C)(C)O	4.433 ± 0.051 mPa·s
CCCCCl	0.429 ± 0.006 mPa·s
CC(C)CO	3.435 ± 0.04 mPa·s

INPUT: Which measured viscosity value corresponds to "CCCCO" ?
OUTPUT: 2.56 ± 0.029 mPa·s

INPUT: Which measured viscosity value corresponds to CCC(C)O (stereo not given) ?
OUTPUT: 3.035 ± 0.038 mPa·s

====

# condition-summary: 308.15 K; 101.33 kPa; Liquid
± gives the expanded uncertainty stated by the source.
This listing pairs compounds with measured mass density.
Kindly format the answer as number then unit.

Some compounds with recorded mass density:
compound	mass density
CCC(C)O (stereo not drawn) [butan-2-ol]	794.07 ± 0.6 kg/m3
CCCCO [butan-1-ol]	798.14 ± 0.45 kg/m3

INPUT: Which measured mass density value corresponds to CC(C)CO [2-methyl-1-propanol] ?
OUTPUT: 790.1 ± 0.5 kg/m3
